experiment: Plasma concentration versus time of Compound I and metabolite Compound III in patients dosed QD or BID with Form B of Compound II plus fulvestrant; assay type: in vivo, human; conditions: human, plasma, oral, 500 mg, 500 mg QD of Form B, Day 1, 1.0 h, Median; read-out: Compound I Concentration
Measured Quantity: concentration at 1 h (ng/mL)
Answer format: numeric, ng/mL implied, no suffix.

Task: Bench note: what concentration at 1 h did CC(C)N1CCN(c2ccc(Nc3ncc4cc5n(c4n3)C3(CCCCC3)CNC5=O)nc2)CC1 [Compound I] show?
Result: 10.2

---

Assay: Plasma concentration versus time of Compound I and metabolite Compound III in patients dosed QD or BID with Form B of Compound II plus fulvestrant
Assay type: in vivo, human
Conditions: human, plasma, oral, 200 mg, 200 mg QD of Form B, Day 1, 6.0 h, Median; read-out: Compound I Concentration
Description: Patients were enrolled into 1 of 2 parallel, independently operating, dose-escalation dosing cohorts with Form B of Compound II administered continuously either once daily (QD) or twice daily (BID) with food with fixed-dose fulvestrant (intramuscularly every 14 days for the first three injections and then every 28 days). Pre- or perimenopausal patients also received goserelin for the duration of study treatment. […]
Measured Quantity: concentration at 6 h

Task: Reported concentration at 6 h, compound CC(C)N1CCN(c2ccc(Nc3ncc4cc5n(c4n3)C3(CCCCC3)CNC5=O)nc2)CC1 : ____
Result: 17.7 ng/mL
